Origin of values: paper PMC11784839

Please go through the items and note down their av puncta.
target: tau (Homo sapiens); test: MCE Phenols Library screening, tau biosensor cell seeding assay (AvZ); assay type: cell-based; details: average puncta of the two replicates
Sequence (P10636 623-695 limits assumed): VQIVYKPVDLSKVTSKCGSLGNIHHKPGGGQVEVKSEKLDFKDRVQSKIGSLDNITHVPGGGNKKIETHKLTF
Reply with the value as a number alone.

With tau (Homo sapiens) as the test system, CC=C1[C@H](O[C@@H]2O[C@H](CO)[C@@H](O)[C@H](O)[C@H]2O)OC=C(C(=O)OC)[C@H]1CC(=O)OC[C@H]1O[C@@H](OCCc2ccc(O)cc2)[C@H](O)[C@@H](O)[C@@H]1O (stereo in doubt) [Specneuzhenide] showed av puncta of 14474.2

With tau (Homo sapiens) as the test system, COc1cc(CCO[C@@H]2O[C@H](CO[C@@H]3O[C@H](CO)[C@@H](O)[C@H](O)[C@H]3O)[C@@H](OC(=O)/C=C/c3ccc(O)c(O)c3)[C@H](O[C@@H]3O[C@@H](C)[C@H](O)[C@@H](O)[C@H]3O)[C@H]2O)ccc1O [Cistanoside A] showed av puncta of 14662.2

With tau (Homo sapiens) as the test system, O=c1c(O[C@@H]2O[C@H](CO)[C@H](O)[C@H](O)[C@H]2O)c(-c2ccc(O)c(O)c2)oc2cc(O)cc(O)c12 [Hyperoside] showed av puncta of 16752.5

With tau (Homo sapiens) as the test system, O=C1C[C@@H](c2ccc(O)c(O)c2)Oc2cc(O)cc(O)c21 showed av puncta of 16042.6

----------
target: tau (Homo sapiens); experiment: MCE Phenols Library screening, tau biosensor cell seeding assay (AvZ); format: cell-based; details: average Z score of the two replicates, tau seeding
Parameter threshold = 0.4. Response is True when av Z meets or exceeds it, else False.

Given the entry CC(C)=CC[C@H](OC(=O)C=C(C)C)C1=CC(=O)c2c(O)ccc(O)c2C1=O [?,?-Dimethylacrylalkannin] , answer whether its av Z meets or surpasses 0.4.
True

Given the entry COc1c(/C=C/C(=O)c2ccc(O)c(CC=C(C)C)c2)ccc(O)c1O [Licochalcone D] , answer whether its av Z meets or surpasses 0.4.
True

Given the entry COc1ccc(C[C@@H]2c3cc(Oc4cc(C[C@@H]5c6cc(O)c(OC)cc6CCN5C)ccc4O)c(OC)cc3CCN2C)cc1 [Isoliensinine] , answer whether its av Z meets or surpasses 0.4.
False

Given the entry O=C1c2c(O)cccc2C([C@@H]2O[C@H](CO)[C@@H](O)[C@H](O)[C@H]2O)c2cc(CO)cc(O)c21 (stereo partly shown) [Aloin] , answer whether its av Z meets or surpasses 0.4.
False

Given the entry COc1ccc(-c2cc(=O)c3c(O)c(OC)c(O[C@@H]4O[C@H](CO[C@@H]5O[C@@H](C)[C@H](O)[C@@H](O)[C@H]5O)[C@@H](O)[C@H](O)[C@H]4O)cc3o2)cc1 [Pectolinarin] , answer whether its av Z meets or surpasses 0.4.
False

----------
molecular target: UniProt P10636; test: MCE Phenols Library screening, tau biosensor cell seeding assay (AvZ); type: cell-based; settings: Z score, replicate 1
Each entry falls into one class according to its Z repl 1; the ranges are zone 1: < -0.4; zone 2: ≥ -0.4 and < 0.1; zone 3: ≥ 0.1

Please let me know in which category the item CCCCCCCCC/C=C/C(=O)CCc1ccc(O)c(OC)c1 [[10]-Shogaol] belongs.
zone 1

Please let me know in which category the item O=c1c(O[C@@H]2O[C@H](CO)[C@@H](O)[C@H](O)[C@H]2O)c(-c2ccc(O)cc2)oc2cc(O)cc(O)c12 belongs.
zone 1

Please let me know in which category the item O=C(CCc1ccc(O)c(O)c1)NCCCNCCCCNCCCNC(=O)CCc1ccc(O)c(O)c1 belongs.
zone 2

Please let me know in which category the item COc1c(O)cc2c(c1O)[C@@H]1O[C@H](CO)[C@@H](O)[C@H](O)[C@H]1OC2=O belongs.
zone 3

Please let me know in which category the item COc1cc(-c2oc3cc(O)cc(O)c3c(=O)c2O)ccc1O belongs.
zone 3

Please let me know in which category the item COc1cc(O)c2c(=O)cc(-c3ccc(O)cc3)oc2c1 belongs.
zone 3

Please let me know in which category the item CCc1ccc(O)cc1O belongs.
zone 1

Please let me know in which category the item COc1cc(C[C@@H](CO)[C@H](CO)Cc2ccc(O)c(OC)c2)ccc1O [(+)-Secoisolariciresinol] belongs.
zone 3

Please let me know in which category the item COC(=O)c1ccccc1O [Methyl Salicylate] belongs.
zone 2
